Field: EC50. Provide a value for each of the compounds that follow.
# Tested on: HBV
# Protocol: anti-HBV activity, HepG2.2.15 stable transfected cell line, HBV DNA from secreted virions by realtime PCR
# Assay type: cell-based
# Condition Details: Hepatitis B virus, 144 h; HepG2.2.15 cells, 6 days of treatment, secreted virion HBV DNA
Quick note: give the figure in nM, leave out the unit.

Query for HBV: what EC50 does the record show for Cc1cc(NC(=O)c2cccc(S(=O)(=O)NC3CC(=O)N(C)C3)c2)ccc1F (racemic) [Compound 179] ?
210

Query for HBV: what EC50 does the record show for CC1(NS(=O)(=O)c2cccc(C(=O)Nc3ccc(F)cc3)c2)COC1 [Compound 4] ?
960

Query for HBV: what EC50 does the record show for Cc1cc(NC(=O)c2cccc(S(=O)(=O)NC3CCCC(O)C3)c2)ccc1F (stereo not shown) [Compound 134] ?
180

Query for HBV: what EC50 does the record show for Cc1ccccc1NC(=O)c1cccc(S(=O)(=O)NC2CCCCC2)c1 [Compound 34] ?
4180

---

# Test system: HBV
# Protocol: anti HBV activity, HepG2.117 inducible (Tet-off) cell line, intracellular HBV DNA by realtime PCR
# Assay type: cell-based
# Condition Details: HepG2.117 cells, 3 days of treatment
Field: pEC50. Provide a value for each of the molecules that follow.
Reminder that pEC50 is minus the log10 of a molar concentration.

Query for HBV: what pEC50 does the record show for COC(=O)N1CCCC(NS(=O)(=O)c2cccc(C(=O)Nc3ccc(F)c(C)c3)c2)C1 (racemic) [Compound 159a] ?
6.07

Query for HBV: what pEC50 does the record show for Cc1cc(NC(=O)c2cccc(S(=O)(=O)NC3CC(=O)N(C)C3)c2)ccc1F (racemic) [Compound 179a] ?
6.60

Query for HBV: what pEC50 does the record show for COC(=O)N1CCCC(NS(=O)(=O)c2cccc(C(=O)Nc3ccc(F)c(C)c3)c2)C1 (racemic) [Compound 159b] ?
6.64

Query for HBV: what pEC50 does the record show for Cc1cc(NC(=O)c2cccc(S(=O)(=O)N[C@@H]3CCC[C@H](O)C3)c2)ccc1F (single isomer, unassigned) [Compound 134b] ?
6.70

Query for HBV: what pEC50 does the record show for Cc1cc(NC(=O)c2cccc(S(=O)(=O)NC3CC(=O)N(C)C3)c2)ccc1F (racemic) [Compound 179b] ?
5.74

---

# System: HepG2 cells
# Protocol: Cytotoxicity in HepG2 cells, 4 days, Resazurin assay
# Condition Details: read-out: HepG2 4 days CC50, 4 days, Resazurin
Field: CC50. Provide a value for each of the compounds that follow.

Tell me the measured CC50 of O=C(Nc1ccccc1)c1cc(S(=O)(=O)N2CCCCC2)c(Cl)cc1Cl , please.
79.6 µM

Tell me the measured CC50 of Cc1cc(NC(=O)c2cccc(S(=O)(=O)NC3CC(=O)N(C)C3)c2)ccc1F (racemic) [Compound 179a] , please.
> 25 µM

Tell me the measured CC50 of Cc1cc(NC(=O)c2cccc(S(=O)(=O)N[C@H]3Cc4ccccc4[C@@H]3O)c2)ccc1F (single isomer, unassigned) [Compound 141a] , please.
> 25 µM

Tell me the measured CC50 of Cc1cc(NC(=O)c2cccc(S(=O)(=O)N[C@H]3Cc4ccccc4[C@H]3O)c2)ccc1F (single isomer, unassigned) [Compound 141b] , please.
> 25 µM

Tell me the measured CC50 of Cc1cc(NC(=O)c2cccc(S(=O)(=O)N[C@H]3CC[C@H](O)C3)c2)ccc1F (single isomer, unassigned) [Compound 145c] , please.
> 25 µM

Tell me the measured CC50 of O=C(Nc1ccc(F)cc1)c1cc(S(=O)(=O)N2CCCCC2)cs1 , please.
35.7 µM

Tell me the measured CC50 of CC1(NS(=O)(=O)c2cccc(C(=O)Nc3ccc(F)cc3)c2)COC1 , please.
> 100 µM

FYI, the data here is from patent US10995064B2.
